Give IC50 for every item shown.

So the reported IC50 for O=P(O)(O)OC1C(OCc2ccccc2)C(OP(=O)(O)O)C(OP(=O)(O)O)C(OP(=O)(O)O)C1OP(=O)(O)O (centres unmarked) [2-O-Bn-InsP5] , on Akt1 (PKBα) (Homo sapiens, UniProt P31749), turned out to be > 100 µM

Bench note, Akt1 (PKBα) (Homo sapiens, UniProt P31749): O=P(O)(O)OC1C(O)C(OP(=O)(O)O)C(OP(=O)(O)O)C(OP(=O)(O)O)C1OP(=O)(O)O (centres unmarked) [InsP5, inositol 1,3,4,5,6-pentakisphosphate] , IC50 reads > 100 µM

----------
molecular target: PDK1 (Homo sapiens); test: SelectScreen kinase profiling: PDK1; assay type: biochemical; settings: 1 µM compound; [ATP] 100 µM; single point
Assignment: determine reported % Inhibition Mean for the given molecules.
For clarity, give the value followed by its unit.

Record `O=P(O)(O)O[C@H]1[C@H](OP(=O)(O)O)[C@@H](OP(=O)(O)O)[C@H](OP(=O)(O)O)[C@@H](OP(=O)(O)O)[C@H]1OP(=O)(O)O` ; system PDK1 (Homo sapiens); % Inhibition Mean = 18%

Entry `O=P(O)(O)O[C@H]1[C@H](O)[C@@H](OP(=O)(O)O)[C@H](OP(=O)(O)O)[C@@H](OP(=O)(O)O)[C@H]1O` , tested on PDK1 (Homo sapiens), has a reported % Inhibition Mean of 56%

Assay PDK1 (Homo sapiens), sample O=P(O)(O)O[C@H]1[C@H](OP(=O)(O)O)[C@@H](OP(=O)(O)O)[C@@H](O)[C@@H](O)[C@@H]1OP(=O)(O)O [Ins(3,4,5,6)P4] , % Inhibition Mean read: 35%

----------
Target: PDK1 (Homo sapiens)
Sequence (O15530 1-556): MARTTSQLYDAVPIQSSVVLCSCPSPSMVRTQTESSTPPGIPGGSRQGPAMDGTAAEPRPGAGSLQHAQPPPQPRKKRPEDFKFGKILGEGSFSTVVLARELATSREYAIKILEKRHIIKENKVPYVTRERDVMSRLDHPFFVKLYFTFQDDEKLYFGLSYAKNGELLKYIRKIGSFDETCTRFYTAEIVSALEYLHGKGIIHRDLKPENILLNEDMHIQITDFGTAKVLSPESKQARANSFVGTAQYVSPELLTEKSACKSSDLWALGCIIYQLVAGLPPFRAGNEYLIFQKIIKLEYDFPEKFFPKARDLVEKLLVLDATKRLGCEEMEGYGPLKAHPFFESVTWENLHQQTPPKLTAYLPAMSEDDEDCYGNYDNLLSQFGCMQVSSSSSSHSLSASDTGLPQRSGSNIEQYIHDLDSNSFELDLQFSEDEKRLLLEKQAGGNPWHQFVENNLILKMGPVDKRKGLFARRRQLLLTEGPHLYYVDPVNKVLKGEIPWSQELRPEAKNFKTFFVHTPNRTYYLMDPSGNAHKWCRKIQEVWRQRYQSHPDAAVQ
Assay: SelectScreen kinase profiling: PDK1
Format: biochemical
Settings: 10-point titration; [ATP] 100 μM
Consider the following compounds; for each one, report its pIC50.
Notebook: values listed as pIC50 are -log10 of the concentration (mol/L).

O=P(O)(O)OC1C(OCc2ccccc2)C(OP(=O)(O)O)C(OP(=O)(O)O)C(OP(=O)(O)O)C1OP(=O)(O)O (centres unmarked) yielded pIC50 of 7.58

The compound identified as O=P(O)(O)OC1C(O)C(OP(=O)(O)O)C(OP(=O)(O)O)C(OP(=O)(O)O)C1OP(=O)(O)O (centres unmarked) [InsP5, inositol 1,3,4,5,6-pentakisphosphate] registered its pIC50 at 6.21
